Test system: MOLT-4 leukemia
Test: NCI tumour cell line growth inhibition, 48 h
assay-readout: TGI

Endpoint output: TGI of O=C(c1ccccc1)c1c(CNCc2ccccc2)n(C(=O)c2ccccc2)c2ccccc12 . Value?
65.5 µM

Next molecule: O=C(/C(=C/c1cccs1)c1ccccc1)c1ccccc1
> 100 µM

Next molecule: Cc1nn(-c2ccc(Br)cc2)c(C)c1CC(=O)c1cc(O)ccc1O
> 50 µM

Next molecule: COc1ccc(C(=O)O)c(Cc2ccc3ccccc3c2)c1
> 100 µM

Next molecule: C[C@]12CC[C@H]3[C@@H](C[C@@H]4N=C(c5ccc(O)cc5)S[C@@]45C[C@H](O)CC[C@]35C)[C@@H]1CC[C@@H]2O
> 100 µM

Next molecule: COc1ccc(CNc2nc(NCc3ccc(OC)cc3)c3n[nH]c(C(C)C)c3n2)cc1
14.4 µM

Next molecule: COC(=O)c1ccc(C2SCC(=O)N2NC(=O)C(O)c2ccccc2)cc1 (configuration not stated)
> 100 µM

Next molecule: ClC[Si]12OCCN(CCO1)CCO2
> 100 µM

Next molecule: O=C(O)C(F)(OC(F)(F)C(F)(OC(F)(F)C(F)(F)C(F)(F)F)C(F)(F)F)C(F)(F)F (configuration not stated)
> 100 µM

Next molecule: Cc1ccccc1/C=C1\CN(C(=O)OC(C)(C)C)C/C(=C\c2ccccc2C)C1=O
21.8 µM

Next molecule: O=C(c1ccc2c3c(ccc(C(=O)C(F)(F)F)c13)CC2)C(F)(F)F
> 100 µM

Next molecule: CCCCOC(=O)C1CN2C(=NC1(C(F)(F)F)C(F)(F)F)Sc1ccccc12 (configuration not stated)
84.6 µM
